Source of measurements: patent US5527907A

System: human mixed lymphocyte reaction
Experiment: human mixed lymphocyte reaction (MLR) assay
Type: cell-based
Settings: Mixed Leukocyte Response (MLR), Table 1, read-out: IC50
observation-type: pIC50
Give bare numbers, as −log10 of the molar value.

Below is a list of compounds. For each, state its recorded pIC50.
1. CO[C@H]1C[C@@H]2CC[C@@H](C)[C@@](O)(O2)C(=O)C(=O)N2CCCC[C@H]2C(=O)O[C@H]([C@H](C)C[C@@H]2CC[C@H](n3ccccc3=O)[C@H](OC)C2)CC(=O)[C@H](C)/C=C(\C)[C@@H](O)[C@@H](OC)C(=O)[C@H](C)C[C@H](C)/C=C/C=C/C=C/1C
2. CO[C@H]1C[C@@H]2CC[C@@H](C)[C@@](O)(O2)C(=O)C(=O)N2CCCC[C@H]2C(=O)O[C@H]([C@H](C)C[C@@H]2CC[C@H](Sc3ncc[nH]3)[C@H](OC)C2)CC(=O)[C@H](C)/C=C(\C)[C@@H](O)[C@@H](OC)C(=O)[C@H](C)C[C@H](C)/C=C/C=C/C=C/1C

Ans:
9.00
10.52

====

System: human mixed lymphocyte reaction
Assay: human mixed lymphocyte reaction (MLR) assay
Assay type: cell-based
Settings: Mixed Leukocyte Response (MLR), Table 1, read-out: IC50
observation-type: IC50 (nM)
Answers are plain numbers, in nM.

// below: answered molecules
{"chemical-string": "CO[C@H]1C[C@@H]2CC[C@@H](C)[C@@](O)(O2)C(=O)C(=O)N2CCCC[C@H]2C(=O)O[C@H]([C@H](C)C[C@@H]2CC[C@H](OC)[C@H](OC)C2)CC(=O)[C@H](C)/C=C(\\C)[C@@H](O)[C@@H](OC)C(=O)[C@H](C)C[C@H](C)/C=C/C=C/C=C/1C", "tgt": "human mixed lymphocyte reaction", "uom": "nM", "IC50": 1.81}
{"chemical-string": "CO[C@H]1C[C@@H]2CC[C@@H](C)[C@@](O)(O2)C(=O)C(=O)N2CCCC[C@H]2C(=O)O[C@H]([C@H](C)C[C@@H]2CC[C@H](n3ccc(=O)cc3)[C@H](OC)C2)CC(=O)[C@H](C)/C=C(\\C)[C@@H](O)[C@@H](OC)C(=O)[C@H](C)C[C@H](C)/C=C/C=C/C=C/1C", "tgt": "human mixed lymphocyte reaction", "uom": "nM", "IC50": 0.12}

Q: Request the reported IC50 associated with CO[C@H]1C[C@@H]2CC[C@@H](C)[C@@](O)(O2)C(=O)C(=O)N2CCCC[C@H]2C(=O)O[C@H]([C@H](C)C[C@@H]2CC[C@@H](OC(=O)N3CCOCC3)[C@H](OC)C2)CC(=O)[C@H](C)/C=C(\C)[C@@H](O)[C@@H](OC)C(=O)[C@H](C)C[C@H](C)/C=C/C=C/C=C/1C
Ans: 0.13

====

Task for the reader: assign each of the following compounds its reported pIC50.
System: human mixed lymphocyte reaction
Assay: human mixed lymphocyte reaction (MLR) assay
Format: cell-based
Settings: Mixed Leukocyte Response (MLR), Table 1, read-out: IC50
Give bare numbers, as −log10 of the molar value.

{"compound": "CO[C@H]1C[C@@H]2CC[C@@H](C)[C@@](O)(O2)C(=O)C(=O)N2CCCC[C@H]2C(=O)O[C@H]([C@H](C)C[C@@H]2CC[C@H](N=[N+]=[N-])[C@H](OC)C2)CC(=O)[C@H](C)/C=C(\\C)[C@@H](O)[C@@H](OC)C(=O)[C@H](C)C[C@H](C)/C=C/C=C/C=C/1C [Example 50]", "pIC50": 9.02}
{"compound": "CO[C@H]1C[C@@H]2CC[C@@H](C)[C@@](O)(O2)C(=O)C(=O)N2CCCC[C@H]2C(=O)O[C@H]([C@H](C)C[C@@H]2CC[C@H](Sc3nccn3C)[C@H](OC)C2)CC(=O)[C@H](C)/C=C(\\C)[C@@H](O)[C@@H](OC)C(=O)[C@H](C)C[C@H](C)/C=C/C=C/C=C/1C [Example 39]", "pIC50": 9.85}

Q: Reported pIC50 for human mixed lymphocyte reaction, given CO[C@H]1C[C@@H]2CC[C@@H](C)[C@@](O)(O2)C(=O)C(=O)N2CCCC[C@H]2C(=O)O[C@H]([C@H](C)C[C@@H]2CC[C@@H](OC(=O)N(C)OC)[C@H](OC)C2)CC(=O)[C@H](C)/C=C(\C)[C@@H](O)[C@@H](OC)C(=O)[C@H](C)C[C@H](C)/C=C/C=C/C=C/1C [Example 17] ?
Ans: 9.82
